Biological target: T1, activated human complement C1s (human, UniProt P09871 16-688)
T1 sequence: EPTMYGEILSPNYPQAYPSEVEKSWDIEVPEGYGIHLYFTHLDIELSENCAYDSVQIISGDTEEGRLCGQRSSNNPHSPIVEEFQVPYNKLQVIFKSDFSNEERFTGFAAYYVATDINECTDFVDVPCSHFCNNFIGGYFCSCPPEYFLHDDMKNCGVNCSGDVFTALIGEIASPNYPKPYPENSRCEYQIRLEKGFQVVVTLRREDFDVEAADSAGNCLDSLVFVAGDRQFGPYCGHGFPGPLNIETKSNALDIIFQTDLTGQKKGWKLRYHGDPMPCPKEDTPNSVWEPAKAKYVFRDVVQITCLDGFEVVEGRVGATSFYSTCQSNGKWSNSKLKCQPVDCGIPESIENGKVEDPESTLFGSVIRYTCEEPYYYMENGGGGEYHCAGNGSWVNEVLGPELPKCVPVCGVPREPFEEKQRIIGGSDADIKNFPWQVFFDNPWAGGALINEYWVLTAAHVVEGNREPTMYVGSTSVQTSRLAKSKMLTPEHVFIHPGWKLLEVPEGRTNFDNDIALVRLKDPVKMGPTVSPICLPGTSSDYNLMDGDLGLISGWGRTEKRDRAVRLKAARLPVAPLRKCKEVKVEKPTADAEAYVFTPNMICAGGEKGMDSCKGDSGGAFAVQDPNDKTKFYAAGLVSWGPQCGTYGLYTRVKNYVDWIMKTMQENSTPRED
Assay: cell-based or functional assay
Reported IC50 of classical complement pathway inhibition (commercial CP activation assay) values follow for various binders
reported-property: IC50 of classical complement pathway inhibition (commercial CP activation assay) (nM)

| binder | units-of-measure | assay-value |
| --- | --- | --- |
| humanized TNT005 variant VH variant 5+Vk variant 1 (antibody, V domains shown, also called VH variant 5 + VL variant 1) VH: QVQLVQSGAEVKKPGASVKVSCAASGFNIKDDYIHWVRQAPGQGLEWIGRIDPADGHTKYAPKFQVKVTITADTSTSTAYMELSSLRSEDTAVYYCARYGYGREVFDYWGQGTTVTVSS VL: DIVLTQSPDSLAVSLGERATISCKASQSVDYDGDSYMNWYQQKTGQPPKILIYDASNLESGIPARFSGSGSGTDFTLTISSLEEEDFAIYYCQQSNEDPWTFGGGTKVEIK | nM | 1.06 |
| humanized TNT005 variant VH variant 3+Vk variant 1 (antibody, V domains shown, also called VH variant 3 + VL variant 1) VH: QVQLVQSGAEVKKPGASVKLSCTASGFNIKDDYIHWVKQAPGQGLEWIGRIDPADGHTKYAPKFQVKVTITADTSTSTAYLELSSLRSEDTAVYYCARYGYGREVFDYWGQGTTVTVSS VL: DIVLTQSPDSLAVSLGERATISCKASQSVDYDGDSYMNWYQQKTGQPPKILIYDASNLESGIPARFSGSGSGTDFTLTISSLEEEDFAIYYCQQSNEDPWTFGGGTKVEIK | nM | 1.27 |
| humanized TNT005 variant VH variant 1+Vk variant 2 (antibody, V domains shown, also called VH variant 1 + VL variant 2) VH: EVQLVQSGAELKKPGASVKLSCTASGFNIKDDYIHWVKQAPGQGLEWIGRIDPADGHTKYAPKFQVKATITADTSTNTAYLQLSSLTSEDTAVYYCARYGYGREVFDYWGQGTTVTVSS VL: DIVLTQSPDSLAVSLGERATISCKASQSVDYDGDSYMNWYQQKPGQPPKILIYDASNLESGIPARFSGSGSGTDFTLTISSLEPEDFAIYYCQQSNEDPWTFGGGTKVEIK | nM | 1.14 |
